Entry source: PubChem BioAssay (EPA / NIEHS)

- test details: CCTE_Shafer_MEA_dev_network_spike_peak: CCTE's Neural Network Formation Assay for Mean Number of Electrodes in Network Spike, Shafer Lab (AID 2284049)
Calls of active or inactive are those of the source. How the source made its calls: active means hit-call score of the fitted dose curve at least 0.9, where 1 is the maximum; inactive means score below 0.9.
Please state which outcome applies, choosing from T = active, F = inactive

Some solved cases for reference:
Cn1c(=O)c2c(ncn2C)n(C)c1=O = F
CNCc1ccc(NC(=O)c2c[nH]c3c2C(=O)CCC3)cc1 = T
CC[C@H](C)C(=O)O[C@H]1C[C@@H](C)C=C2C=C[C@H](C)[C@H](CC[C@@H]3C[C@@H](O)CC(=O)O3)[C@H]21 = T
COc1ccc(-n2nc(C(F)F)cc2-c2ccc(S(C)=O)cc2)cc1 (configuration not stated) = T
CC[C@H]1OC(=O)[C@H](C)[C@@H](O[C@H]2C[C@@](C)(OC)[C@@H](O)[C@H](C)O2)[C@H](C)[C@@H](O[C@@H]2O[C@H](C)C[C@H](N(C)C)[C@H]2O)[C@](C)(O)C[C@@H](C)C(=O)[C@H](C)[C@@H](O)[C@]1(C)O = F
Nc1nc2ncc(CNc3ccc(C(=O)N[C@@H](CCC(=O)O)C(=O)O)cc3)nc2c(=O)[nH]1 = F

Please find the next compound below.
How did this test come out for O=C1CCC(N2C(=O)c3ccccc3C2=O)C(=O)N1 (configuration not stated) ?
F

###

- Read-out: Monokine induced gamma interferon (MIG), CXCL9 (gene 4283)
- test details: BSK_BE3C_MIG: BioMAP Diversity Plus: BE3C Assay for Monokine induced gamma interferon (MIG) Biomarker Activity (AID 2283035)
- condition label: primary human bronchial epithelial cells; actives raise or lower the signal
Activity calls are given as the source filed them. The calls were made as follows: active = hit-call score of the fitted dose curve at least 0.9, where 1 is the maximum; inactive = score below 0.9.
endpoint: AC50

Answered examples (5):
COc1ccc2sc(C(=O)Nc3nnn[nH]3)c(OC(C)C)c2c1 = inactive
CC(C)CC(C)(O)C#CC(C)(O)CC(C)C (stereo unspecified) = inactive
CC(C)CCO = inactive
CCc1cc(SCc2sc(-c3ccc(C(F)(F)F)cc3)nc2CN2CCN(c3ccc(OC)cc3)CC2)ccc1OCC(=O)O = 5.52 µM (active)
Clc1nc(Cl)c(Cl)c(Cl)c1Cl = inactive

Next, consider the following compound.
# query: AC50 of entry Fc1ccccc1[C@@H](F)COC1CCC(Nc2ncnc3[nH]ncc23)CC1 (stereo partly specified)
inactive

###

- study system: AR (gene 367)
- test details: ACEA_AR_antagonist_80hr: ACEA Biosciences xCELLigence Real-Time Cell Analysis on Androgen Receptor Antagonism for Proliferation (AID 2283787);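 further: 22Rv1 human prostate cancer cells with growth followed by electrical impedance; hits lower the impedance growth signal relative to DMSO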
Records with an inconclusive call do not appear. Calls of active or inactive are those of the source. The calls were made as follows: active = hit-call score of the fitted dose curve at least 0.9, where 1 is the maximum; inconclusive = response in the unintended direction; inactive = score below 0.9.
Please state which outcome applies, choosing from yes (active), no (inactive)

CC1(C)C(=O)N(Br)C(=O)N1Br = no
Cc1ccc(N)cc1O = yes
Cc1ccc(O)cc1 = no
CCCCC(CC)COC(=O)c1ccc(C(=O)OCC(CC)CCCC)cc1 (stereo not given) = no
Oc1ccc2c(c1)-c1ccccc1C2 = yes

How did this test come out for "CCCN(C1CCN(C(=O)C2CCNCC2)CC1)[C@@H]1CCc2ccc(OC)cc2C1" ?
yes

How did this test come out for Fc1ccccc1[C@@H](F)COC1CCC(Nc2ncnc3[nH]ncc23)CC1 (stereo not given in full) ?
yes

How did this test come out for "O=C(CCCCCCCCc1cccnc1)N1CCC(C=C(c2ccccc2)c2ccccc2)CC1" ?
yes

How did this test come out for CC(C)=CCCC(C)CCO (stereo not given) ?
no

How did this test come out for "CCCCCCc1ccc(O)cc1O" ?
yes
